The entries below come with measured half-life values attached.
assay: Pharmacokinetics of five iridoids in rat plasma after oral administration of PS extract (UHPLC-ESI-MS/MS)
Format: in vivo, SD (Sprague Dawley) rats
assayConditions: male, Sprague-Dawley, rat, in vivo, po, 1 g/kg
Description: Six adult male SD (Sprague Dawley) rats (220–250 g) were purchased from the Animal Experiment Center of Heilongjiang University of Chinese Medicine. […] We calculated the dosage of SD rats using the standardized formula for body surface area (BSA). […] The plasma samples were treated according to the method described in Section 3.3. The plasma samples were determined according to the chromatographic conditions described in Section 3.4 and chromatograms were recorded. […]
The figure you give is taken to be in min; do not add the unit.

Task item: Requested field: half-life. Item: O=C(/C=C/c1ccccc1)OC[C@H]1O[C@@H](O[C@@H]2OC=C[C@H]3[C@H](O)[C@@H]4O[C@]4(CO)[C@@H]23)[C@H](O)[C@@H](O)[C@@H]1O [Picroside-I]
Reply: 144

Task item: // returns reported half-life for input COc1cc(C(=O)O[C@H]2[C@@H]3C=CO[C@@H](O[C@@H]4O[C@H](CO)[C@@H](O)[C@H](O)[C@H]4O)[C@@H]3[C@@]3(CO)O[C@@H]23)ccc1O [Picroside-II]
Reply: 138

Task item: // query half-life value for entry COc1ccc(/C=C/C(=O)O[C@H]2[C@@H]3C=CO[C@@H](O[C@@H]4O[C@H](CO)[C@@H](O)[C@H](O)[C@H]4O)[C@@H]3[C@@]3(CO)O[C@@H]23)cc1O [Minecoside, minecoside]
Reply: 300

---

assay: Pharmacokinetics of five iridoids in rat plasma after oral administration of PS extract (UHPLC-ESI-MS/MS)
Format: in vivo, SD (Sprague Dawley) rats
assayConditions: male, Sprague-Dawley, rat, in vivo, po, 1 g/kg
Entries and their Tmax values follow.
Write the value in h as a bare number.

{"compound": "O=C(/C=C/c1ccccc1)OC[C@H]1O[C@@H](O[C@@H]2OC=C[C@H]3[C@H](O)[C@@H]4O[C@]4(CO)[C@@H]23)[C@H](O)[C@@H](O)[C@@H]1O [Picroside-I]", "Tmax [h]": 1.1}
{"compound": "COc1ccc(/C=C/C(=O)O[C@H]2[C@@H]3C=CO[C@@H](O[C@@H]4O[C@H](CO)[C@@H](O)[C@H](O)[C@H]4O)[C@@H]3[C@@]3(CO)O[C@@H]23)cc1O [Minecoside, minecoside]", "Tmax [h]": 1}

With those in mind, consider the next compound.
Task item: # lookup: Tmax of COc1cc(C(=O)O[C@H]2[C@@H]3C=CO[C@@H](O[C@@H]4O[C@H](CO)[C@@H](O)[C@H](O)[C@H]4O)[C@@H]3[C@@]3(CO)O[C@@H]23)ccc1O [Picroside-II]
Reply: 1.1

---

assay: Pharmacokinetics of five iridoids in rat plasma after oral administration of PS extract (UHPLC-ESI-MS/MS)
Type: in vivo, SD (Sprague Dawley) rats
assayConditions: male, Sprague-Dawley, rat, in vivo, po
measureName: AUC(0-t) (ng·h/mL)
Hi! Could you send only the number? It should be in ng·h/mL, unit omitted.

Task item: // returns reported AUC(0-t) for input COc1cc(C(=O)O[C@H]2[C@@H]3C=CO[C@@H](O[C@@H]4O[C@H](CO)[C@@H](O)[C@H](O)[C@H]4O)[C@@H]3[C@@]3(CO)O[C@@H]23)ccc1O [Picroside-II]
Reply: 604

These measurements were taken from paper PMC10421376.
